// reported TGI per item
Tested on: SK-MEL-5 melanoma
Experiment: NCI tumour cell line growth inhibition, 48 h
Express your answer in µM, writing the number without its unit.

[[record]]
structure_smiles_string = "COc1cc2c(c(OC)c1OC)-c1ccc(SC)c(=O)cc1[C@@H](NCc1ccc([N+](=O)[O-])cc1)CC2"
observation_type = "TGI"
observed_measurement = 17.5


Now for a further compound.
Lab note: compound CC(=O)N1CCN(CCNC(=O)n2cc(-c3ccncc3)c(-c3cc(O)cc(Cl)c3)n2)CC1 tested on SK-MEL-5 melanoma; recorded TGI was 16.9

====

Tested on: M14 melanoma
Assay: NCI tumour cell line growth inhibition, 48 h
observation type: TGI

[[record]]
molecule = "COc1cc2nc(-c3cccs3)nc(Nc3cccc(Cl)c3)c2cc1OC"
observed_measurement = "> 100 µM"

[[record]]
molecule = "COC1=CC(=O)N(C)C(O)C1(C#N)OC1OC(CO)C(O)C(O)C1O (stereo not given)"
observed_measurement = "> 100 µM"

[[record]]
molecule = "CCNc1cc2c3c(c1)CCN3CCC2"
observed_measurement = "> 10 µM"

[[record]]
molecule = "O=C(NCCCc1cn[nH]c1)c1ccc(-c2ccncc2)c(C#Cc2ccc(F)cc2)c1"
observed_measurement = "> 54.7 µM"

[[record]]
molecule = "COC(=O)Nc1nc2ccc(NC(=O)c3ccc(I)cc3)cc2[nH]1"
observed_measurement = "> 100 µM"

[[record]]
molecule = "Cc1cc(N(CCOS(C)(=O)=O)CCOS(C)(=O)=O)ccc1C(=O)O"
observed_measurement = "> 100 µM"

[[record]]
molecule = "CC(=O)OCC1OC(n2c(C)c(C)c(C)c(C#N)c2=S)C(OC(C)=O)C(OC(C)=O)C1OC(C)=O (stereo not given)"
observed_measurement = "> 100 µM"

[[record]]
molecule = "COc1ccccc1C1C(C#N)=C(N)Oc2n[nH]c(C)c21 (stereo not given)"
observed_measurement = "> 100 µM"

[[record]]
molecule = "Cc1ccc2nc(NC(=O)C(=O)C(C#N)c3ccc(Cl)cc3)sc2c1 (stereo not given)"
observed_measurement = "> 50 µM"


Consider the record given below.
Entry CCOC(=O)c1cc(-c2ccc(-c3cc(C(=O)OCC)c(C#N)c(N)c3C#N)cc2)c(C#N)c(N)c1C#N — recorded TGI = > 100 µM
